test: NCI Yeast Anticancer Drug Screen. Data for the sgs1 mgt1 strain (AID 161); conditions: S. cerevisiae sgs1 mgt1 strain, at 50.0 µM
Compounds without any hit were thinned out: in the full panel of roughly 79,000, 15% have a hit. Calls of active or inactive are those of the source. Cut-off read from the data, not from the text of the source: active = growth inhibition above about 70%; inactive = the rest.
Labels: active, inactive

[
  {
    "Molecule": "C/C(O)=C(/N=Nc1ccc(-c2nc3ccc(C)c(S(=O)(=O)O)c3s2)cc1)C(=O)Nc1ccccc1",
    "Category Label": "inactive"
  },
  {
    "Molecule": "CC(=O)NCC(O)c1ccc([N+](=O)[O-])cc1 (centres undefined)",
    "Category Label": "inactive"
  },
  {
    "Molecule": "CSc1ccc(NC(=O)COc2ccccc2)cc1",
    "Category Label": "inactive"
  },
  {
    "Molecule": "O=C1C2C3CCC(O3)C2C(=O)N1Cc1ccccc1CN1C(=O)C2C3CCC(O3)C2C1=O (centres undefined)",
    "Category Label": "active"
  },
  {
    "Molecule": "c1ccc(-c2n[nH]c3c2CCCc2ccccc2-3)cc1",
    "Category Label": "inactive"
  },
  {
    "Molecule": "Clc1cccc(Cl)c1/C=N/Nc1nnc(N/N=C/c2c(Cl)cccc2Cl)c2ccccc12",
    "Category Label": "inactive"
  },
  {
    "Molecule": "CNC(=S)ON1CCCCC1",
    "Category Label": "inactive"
  },
  {
    "Molecule": "O=[N+]([O-])c1ccc(N=NN2CCOCC2)cc1",
    "Category Label": "inactive"
  },
  {
    "Molecule": "Nc1ccnn2c(-c3ccccc3)nnc12",
    "Category Label": "inactive"
  },
  {
    "Molecule": "COC(=O)Nc1cn2cc(C(=O)c3cccs3)ccc2n1",
    "Category Label": "inactive"
  },
  {
    "Molecule": "CCOC(=O)C1CC1C#N (centres undefined)",
    "Category Label": "inactive"
  },
  {
    "Molecule": "CC(=O)OC1(C)N=NC2(CCCCC2)O1 (centres undefined)",
    "Category Label": "inactive"
  },
  {
    "Molecule": "CC(C)c1cc(C(C)C)c(Cc2c(C(C)C)cc(C(C)C)cc2C(C)C)c(C(C)C)c1",
    "Category Label": "inactive"
  },
  {
    "Molecule": "c1ccc(CCCC2Sc3cccc4cccc(c34)S2)cc1",
    "Category Label": "inactive"
  },
  {
    "Molecule": "c1cnc(NC(Nc2ncccn2)c2ccco2)nc1",
    "Category Label": "inactive"
  },
  {
    "Molecule": "O=[N+]([O-])c1ccc(S(=O)(=O)n2cccc2)cc1",
    "Category Label": "inactive"
  },
  {
    "Molecule": "COc1cc2oc(=O)ccc2cc1CC=C(C)C",
    "Category Label": "inactive"
  },
  {
    "Molecule": "COc1ccc2c(c1)CCCN2S(=O)(=O)c1ccccc1[N+](=O)[O-]",
    "Category Label": "inactive"
  },
  {
    "Molecule": "CC1(C)CC(=O)N(Nc2ccccc2)C1=O",
    "Category Label": "inactive"
  },
  {
    "Molecule": "CSc1ccc(NC(=O)Nc2cc(C)ccc2Cl)cc1",
    "Category Label": "inactive"
  },
  {
    "Molecule": "c1csc(C2N3CCN(CC3)C(c3cccs3)N3CCN2CC3)c1 (centres undefined)",
    "Category Label": "inactive"
  },
  {
    "Molecule": "COc1ccc(-c2cc(C(=O)Nc3cccc(C(F)(F)F)c3)[nH]c(=S)n2)cc1",
    "Category Label": "inactive"
  },
  {
    "Molecule": "O=C(CCC/C(CC(=O)c1ccc(Cl)cc1)=N\\NC(=O)c1cc2ccccc2cc1O)Nc1cccc([N+](=O)[O-])c1",
    "Category Label": "inactive"
  },
  {
    "Molecule": "CC(=O)N(CCC(C)C)c1ccccc1",
    "Category Label": "inactive"
  },
  {
    "Molecule": "O=Cc1ccc(OCCCOc2ccc([N+](=O)[O-])cc2)cc1",
    "Category Label": "inactive"
  },
  {
    "Molecule": "COC(=O)c1ccc(SCCC(C)=O)cc1",
    "Category Label": "inactive"
  },
  {
    "Molecule": "Clc1ccc2c(NCCCCN=Cc3ccccc3)ccnc2c1",
    "Category Label": "inactive"
  },
  {
    "Molecule": "CC(=O)OCC1OC(n2cnc3c(Cl)nc(Cl)nc32)CC1OC(C)=O (centres undefined)",
    "Category Label": "inactive"
  },
  {
    "Molecule": "C/C(=C\\CC1C(=O)N(c2ccccc2)N(c2ccccc2)C1=O)CO",
    "Category Label": "inactive"
  },
  {
    "Molecule": "Cc1cccc(C(=O)N(C)C)c1",
    "Category Label": "inactive"
  },
  {
    "Molecule": "Clc1cnnc(Cl)c1N/N=C/c1ccco1",
    "Category Label": "inactive"
  },
  {
    "Molecule": "C=C(Br)CN(C(C)=O)C1CCCCC1",
    "Category Label": "inactive"
  },
  {
    "Molecule": "COc1ccc(NS(=O)c2ccccc2OC)cc1 (centres undefined)",
    "Category Label": "inactive"
  },
  {
    "Molecule": "COc1c(OC(C)=O)c(Cl)cc(C=O)c1[N+](=O)[O-]",
    "Category Label": "inactive"
  },
  {
    "Molecule": "CCCCC(Nc1nncs1)Nc1nncs1",
    "Category Label": "inactive"
  },
  {
    "Molecule": "COc1ccc(C(=O)CC(C#N)c2ccccc2Cl)cc1 (centres undefined)",
    "Category Label": "inactive"
  },
  {
    "Molecule": "Cc1cc2c(=O)cc(-c3ccc(O)cc3)oc2c(C(=O)O)c1C",
    "Category Label": "inactive"
  },
  {
    "Molecule": "COc1cccc(-c2nc(-c3cnccn3)n(C3OC(CO)C(O)C3O)n2)c1 (centres undefined)",
    "Category Label": "inactive"
  },
  {
    "Molecule": "COc1ccc(Cc2ccc3c(c2)OCO3)cc1C",
    "Category Label": "inactive"
  },
  {
    "Molecule": "O=C1C=C(Nc2ccccc2C(=O)CC(=O)C(=O)Nc2ccc(Cl)cc2)c2ccccc2C1=O",
    "Category Label": "inactive"
  },
  {
    "Molecule": "CC(C)(C)C(=O)C(c1ccc(-c2cscn2)cc1)c1ccc(-c2cscn2)cc1",
    "Category Label": "inactive"
  },
  {
    "Molecule": "CCC(C)(C)c1ccc(OCCO)cc1",
    "Category Label": "inactive"
  },
  {
    "Molecule": "CC(C)(C)c1ccc(OC(=O)NCCCCCCNC(=O)Oc2ccc(C(C)(C)C)cc2)cc1",
    "Category Label": "inactive"
  },
  {
    "Molecule": "N#Cc1c2c(c(=S)n(-c3ccc(Cl)cc3)c1N)CCCC2",
    "Category Label": "inactive"
  },
  {
    "Molecule": "CCCCCCCC/C=C\\CCCCCCCC(=O)N(C)CC(=O)O",
    "Category Label": "inactive"
  },
  {
    "Molecule": "COC(=O)C(Cc1nc2ccccc2[nH]c1=O)C(=O)C(=O)Nc1ccc([N+](=O)[O-])cc1[N+](=O)[O-] (centres undefined)",
    "Category Label": "inactive"
  },
  {
    "Molecule": "O=C(c1ccccc1)N(Cc1ccccc1)Cc1ccccc1",
    "Category Label": "inactive"
  },
  {
    "Molecule": "CN(CCS)C(=N)N",
    "Category Label": "inactive"
  },
  {
    "Molecule": "Cc1c(O)c2ccccc2n(C)c1=O",
    "Category Label": "inactive"
  }
]
